Target Of Assay: Recombinant human Bcl-2 protein (Homo sapiens, UniProt P10415)
Sequence (P10415 whole entry): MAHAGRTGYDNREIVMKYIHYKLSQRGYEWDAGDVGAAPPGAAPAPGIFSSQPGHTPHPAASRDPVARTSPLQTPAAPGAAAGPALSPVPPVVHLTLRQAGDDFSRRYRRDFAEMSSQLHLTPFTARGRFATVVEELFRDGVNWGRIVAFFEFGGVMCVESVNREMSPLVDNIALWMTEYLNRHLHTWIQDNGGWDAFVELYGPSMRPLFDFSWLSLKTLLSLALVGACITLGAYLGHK
Protocol Summary: Bcl-2 TR-FRET assay
Format: binding
Test Settings: TR-FRET, 0.05 nM Bcl-2, FITC labeled Bak peptide 0.5 nM; read-out: Biochemical assay (IC50, nM) Bcl-2 WT
Description: Compounds disclosed herein were tested for blocking of Bcl-2 protein with its ligand in an assay based on Time-Resolved Fluorescence Resonance Energy Transfer (TR-FRET) methodology. […] The inhibition percentage of Bcl-2 interaction with its ligand in presence of increasing concentrations of compounds was calculated based on the TR-FRET signals. […]
Rule: measured IC50 below 0.04 nM gets t; anything equal to or greater than 0.04 nM gets f.

Previously resolved entries follow.
- Compound: "CC(C)c1ccccc1[C@@H]1CCCN1C1CC2(C1)CN(c1ccc(C(=O)NS(=O)(=O)c3ccc(NC[C@H]4CC[C@](C)(O)CC4)c([N+](=O)[O-])c3)c(N3CCCOc4nc5[nH]ccc5cc43)c1)C2"
  Target Of Assay: "Recombinant human Bcl-2 protein (Homo sapiens, UniProt P10415)"
  Label Class: "f"
- Compound: "CC(C)c1ccccc1[C@@H]1CCCN1C1CC2(C1)CN(c1ccc(C(=O)NS(=O)(=O)c3ccc(NC[C@H]4COCCO4)c([N+](=O)[O-])c3)c(N3CCCOc4nc5[nH]ccc5cc43)c1)C2"
  Target Of Assay: "Recombinant human Bcl-2 protein (Homo sapiens, UniProt P10415)"
  Label Class: "f"
- Compound: "CC(C)c1ccccc1[C@@H]1CCCN1C1CC2(CCN(c3ccc(C(=O)NS(=O)(=O)c4cc5c(c([N+](=O)[O-])c4)N[C@H](C[C@H]4CC[C@H](O)CC4)CO5)c(Oc4cnc5[nH]ccc5c4)c3)CC2)C1"
  Target Of Assay: "Recombinant human Bcl-2 protein (Homo sapiens, UniProt P10415)"
  Label Class: "t"
- Compound: "CC(C)c1ccccc1[C@@H]1CCCN1C1CC2(CCN(c3ccc(C(=O)NS(=O)(=O)c4cc5c(c([N+](=O)[O-])c4)N[C@H](C[C@H]4CC[C@@H](O)CC4)CO5)c(Oc4cnc5[nH]ccc5c4)c3)CC2)C1"
  Target Of Assay: "Recombinant human Bcl-2 protein (Homo sapiens, UniProt P10415)"
  Label Class: "t"
- Compound: "CC(C)c1ccccc1[C@@H]1CCCN1C1CC2(CCN(c3ccc(C(=O)NS(=O)(=O)c4ccc(NCC5(F)CCOCC5)c([N+](=O)[O-])c4)c(N4CCCOc5nc6[nH]ccc6cc54)c3)CC2)C1"
  Target Of Assay: "Recombinant human Bcl-2 protein (Homo sapiens, UniProt P10415)"
  Label Class: "f"
- Compound: "CC(C)c1ccccc1[C@@H]1CCCN1C1CC2(CCN(c3ccc(C(=O)NS(=O)(=O)c4cc5c(c([N+](=O)[O-])c4)N[C@H](C[C@H]4CC[C@H](O)CC4)CO5)c(N4C[C@@H](C)Oc5nc6[nH]ccc6cc54)c3)CC2)C1"
  Target Of Assay: "Recombinant human Bcl-2 protein (Homo sapiens, UniProt P10415)"
  Label Class: "f"
- Compound: "[2H]C1([2H])CCC([2H])(c2ccccc2C(C)C)N1C1CC2(CCN(c3ccc(C(=O)NS(=O)(=O)c4cc5c(c([N+](=O)[O-])c4)N[C@H](C[C@H]4CC[C@H](O)CC4)CO5)c(Oc4cnc5[nH]ccc5c4)c3)CC2)C1 (stereo partly drawn)"
  Target Of Assay: "Recombinant human Bcl-2 protein (Homo sapiens, UniProt P10415)"
  Label Class: "t"
- Compound: "CC(C)c1ccccc1[C@@H]1CCCN1C1CC2(CCN(c3ccc(C(=O)NS(=O)(=O)c4ccc(NC[C@H]5CC[C@](C)(O)CC5)c([N+](=O)[O-])c4)c(N4C[C@H](C)Oc5nc6[nH]ccc6cc54)c3)CC2)C1"
  Target Of Assay: "Recombinant human Bcl-2 protein (Homo sapiens, UniProt P10415)"
  Label Class: "t"
- Compound: "CC(C)c1ccccc1[C@@H]1CCCN1C1CC2(CCN(c3ccc(C(=O)NS(=O)(=O)c4cc5c(c([N+](=O)[O-])c4)N[C@H](CC4CCC(O)CC4)CO5)c(N4C[C@H](C)Oc5nc6[nH]ccc6cc54)c3)CC2)C1 (stereo partly drawn)"
  Target Of Assay: "Recombinant human Bcl-2 protein (Homo sapiens, UniProt P10415)"
  Label Class: "f"

Now take the following compound into account.
Lab note: confirm whether the reported IC50 for this compound is below 0.04 nM, equality not counting. compound: `CC(C)c1ccccc1[C@@H]1CCCN1C1CC2(CCN(c3ccc(C(=O)NS(=O)(=O)c4ccc(NC[C@H]5CC[C@](C)(O)CC5)c([N+](=O)[O-])c4)c(N4C[C@@H](C)Oc5nc6[nH]ccc6cc54)c3)CC2)C1`
t
